OBSERVABLE: melting point

Examples with their reported melting point follow.
CN(C)c1nc(N)nc(Nc2ccc3c(c2)CCC3)n1 [Example 23]	245 to 255 °C
CN(C)c1nc(N)nc(N)n1 [Example 11]	271.8 to 272.8 °C
Nc1nc(N)nc(NCCc2ccccc2)n1 [Example 13]	169.9 to 171.8 °C
Cc1cccc(Nc2nc(N)nc(N(C)C)n2)c1 [Example 32]	166 to 168 °C
COc1ccc(OC)c(Nc2nc(N)nc(N(C)C)n2)c1 [Example 19]	213 to 215 °C

Ask: Entry Cc1ccc(CNc2nc(N)nc(N(C)C)n2)cc1 [Example 14] : reported melting point = ?
Reply: 139 to 143 °C
